# Cytochrome P450 2C19 (Homo sapiens, UniProt P33261): IC50 values follow
# Sequence (P33261 whole entry): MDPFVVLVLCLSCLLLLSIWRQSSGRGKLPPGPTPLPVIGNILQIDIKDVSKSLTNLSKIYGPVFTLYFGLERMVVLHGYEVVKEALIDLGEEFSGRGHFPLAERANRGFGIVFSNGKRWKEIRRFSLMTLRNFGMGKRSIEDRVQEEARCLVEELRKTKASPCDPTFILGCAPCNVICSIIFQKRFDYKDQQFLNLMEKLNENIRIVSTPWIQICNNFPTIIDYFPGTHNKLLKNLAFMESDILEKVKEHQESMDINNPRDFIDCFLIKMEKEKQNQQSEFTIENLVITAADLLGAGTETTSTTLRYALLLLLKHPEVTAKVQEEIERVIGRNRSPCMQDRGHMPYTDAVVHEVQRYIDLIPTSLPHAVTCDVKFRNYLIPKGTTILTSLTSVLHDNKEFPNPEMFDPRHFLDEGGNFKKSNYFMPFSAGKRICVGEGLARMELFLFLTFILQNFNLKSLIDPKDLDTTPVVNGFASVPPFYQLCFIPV

Worked examples follow.
Nc1oncc1-c1ccsc1; > 10 µM
Nc1oncc1-n1cccn1; > 10 µM

Field: next compound
Asked: Give reported IC50 for Nc1oncc1-n1cc(F)cn1 (Cytochrome P450 2C19 (Homo sapiens, UniProt P33261))
Given back: > 10 µM

----------
Assay: Metabolic stability in dog whole blood assessed as parent compound remaining at 0.5 mM after 2 hrs by LC-MS/MS analysis
Format: ADME, tissue-based, Canis lupus familiaris
Settings: read-out: Stability
quantity: remaining at 2 h, 500 µM (%)
API: value field is a number in %; no unit string.

Worked examples follow.
Cc1noc(N)c1-c1ccccc1; 65
Nc1oncc1-c1ccccc1; 0

Asked: Given the compound CNc1oncc1-c1ccccc1 , write its reported remaining at 2 h, 500 µM.
Given back: 0.1

----------
Assay: Metabolic stability in rat whole blood assessed as parent compound remaining at 0.5 mM after 30 mins by LC-MS/MS analysis
Type: ADME, tissue-based
Conditions: read-out: Stability
quantity: remaining at 0.5 h, 500 µM (%)
API: value field is a number in %; no unit string.

Asked: Given the molecule Nc1oncc1-c1ccsc1 , write its reported remaining at 0.5 h, 500 µM.
Given back: 3

----------
Property: pIC50; scope: individual compounds
Biological target: UniProt P48775
Assay: Competitive inhibition of recombinant human TDO2 assessed as decrease in conversion of L-tryptophan to N-formylkynurenine preincubated for 5 mins followed by 1 mM substrate addition measured after 15 mins by RapidFire mass spectrometry based fluorescence assay
Give only the number. pIC50 is defined as minus log10 of concentration in molar units.

Nc1oncc1-c1ccc(Cl)cc1; 5.38

Asked: Give reported pIC50 for Nc1oncc1-c1cccc(Cl)c1 (UniProt P48775)
Given back: 5.53

----------
Biological target: Tryptophan 2,3-dioxygenase (Homo sapiens)
Sequence (P48775 whole entry): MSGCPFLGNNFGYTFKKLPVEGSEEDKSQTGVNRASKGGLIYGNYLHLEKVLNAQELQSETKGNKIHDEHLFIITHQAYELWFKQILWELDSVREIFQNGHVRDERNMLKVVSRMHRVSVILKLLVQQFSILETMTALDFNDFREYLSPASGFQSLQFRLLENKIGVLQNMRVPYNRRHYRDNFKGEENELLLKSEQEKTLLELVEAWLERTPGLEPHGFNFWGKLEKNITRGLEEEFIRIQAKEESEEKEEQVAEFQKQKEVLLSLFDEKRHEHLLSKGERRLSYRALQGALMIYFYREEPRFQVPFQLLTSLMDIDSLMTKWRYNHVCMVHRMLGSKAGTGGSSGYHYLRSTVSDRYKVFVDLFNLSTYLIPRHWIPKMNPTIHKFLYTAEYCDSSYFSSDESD
Test: Inhibition of recombinant human TDO2 assessed as decrease in conversion of L-tryptophan to N-formylkynurenine preincubated for 5 mins followed by 0.2 mM substrate addition measured after 15 mins by RapidFire mass spectrometry based fluorescence assay
quantity: pIC50
Give only the number. pIC50 is defined as minus log10 of concentration in molar units.

Worked examples follow.
CNc1oncc1-c1ccccc1; 6.72
Nc1nnsc1-c1ccccc1; 6.57
Nc1oncc1-c1ccc(F)cc1; 6.24
Nc1oncc1-c1ccccn1; 5.77
Nc1oncc1-c1ccsc1; 7.55

Asked: Given the compound COc1cccc(-c2cnoc2N)c1 , write its reported pIC50.
Given back: 5.51

----------
Target: UniProt:P48775
Assay: Inhibition of recombinant human TDO2 assessed as decrease in conversion of L-tryptophan to N-formylkynurenine preincubated for 5 mins followed by 0.2 mM substrate addition measured after 15 mins by RapidFire mass spectrometry based fluorescence assay
Property: IC50; scope: individual compounds
API: value field is a number in µM; no unit string.

Worked examples follow.
Nc1sncc1-c1ccccc1; 18
Cc1ccn(-c2cnoc2N)n1; 1.6
Nc1oncc1-c1ccc(Cl)cc1; 0.83

Asked: Given the compound Nc1oncc1C1CCCC1 , write its reported IC50.
Given back: 0.64

Asked: Given the compound Nc1oncc1-c1ccccc1 , write its reported IC50.
Given back: 0.14

Asked: Given the compound Nc1oncc1-c1cccc(Cl)c1 , write its reported IC50.
Given back: 0.5

Asked: Given the compound Nc1oncc1C1CCCCC1 , write its reported IC50.
Given back: 7.8

Asked: Given the compound Nc1oncc1-c1cccnc1 , write its reported IC50.
Given back: 2.3

Asked: Given the compound Nc1oncc1-c1cccs1 , write its reported IC50.
Given back: 0.029

Asked: Given the compound Nc1oncc1-n1cccn1 , write its reported IC50.
Given back: 0.29

These measurements were taken from ChEMBL document CHEMBL4145589.
